These entries and their values trace back to the supplement of paper PMC6757056.

B1: library; a variant is named by its letters at N, in order (parent)
chain: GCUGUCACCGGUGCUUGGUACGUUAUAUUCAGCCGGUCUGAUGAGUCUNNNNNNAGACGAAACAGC

variants of: B1; experiment: normalized RNA/DNA level without ligand (relative to sTRSVctl = 100) (log10 (% of sTRSVctl)); HEK293T overexpressing SLC46A1; higher = less ribozyme self-cleavage, higher mRNA level; details: without (6R,S)-folinic acid; ligand present: no
normalized RNA/DNA level without ligand (log10) of 2 or higher: rule met. Under 2: rule not met.

{"columns": ["variant description", "qualitative label"],
 "data": [
  ["UGUAAA", "rule not met"],
  ["GUGGGG", "rule not met"],
  ["CCCUCC", "rule met"],
  ["UCGGAG", "rule not met"],
  ["UGAGAA", "rule not met"],
  ["CGGGUC", "rule met"],
  ["UUUGGG", "rule not met"],
  ["CGUUUC", "rule met"],
  ["AGAAAG", "rule not met"],
  ["ACAGUC", "rule met"],
  ["UAAACG", "rule not met"],
  ["GGCGGG", "rule met"],
  ["UGUCUC", "rule met"],
  ["UGUAAU", "rule not met"],
  ["UAUCUG", "rule not met"],
  ["AGGCUC", "rule met"],
  ["AUGAGG", "rule not met"],
  ["UGGGAU", "rule not met"],
  ["GCGGCU", "rule met"]
]}
